- assay overview: A549 NSCLC cell proliferation inhibitors – ATP luminescence, human non-small cell lung line, primary screen (AID 371);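 note: compound exposure lasted 72 h before the ATP read; 0% = untreated cell signal and 100% = no luminescence left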
- measurement conditions: at 10 µM
The campaign covered roughly 3,300 compounds. About 280 (8.5%) were called active.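 Rule for the calls: active = mean growth inhibition over the two runs of 50% or more; inactive = mean growth inhibition under 50%.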 The entries come from a sample that favours actives as a whole.
Your reply should match one of these outcome classes. 1 (active), -1 (inactive)

Answered examples (5):
INSERT INTO results (compound, class_label) VALUES
  ('Cc1c(C)n(C(=O)CSc2nccn2C)c2ccccc12', -1),
  ('Cc1ccc2c(=O)c(CN(C)C3CCN(C)CC3)c(C)[nH]c2c1C', -1),
  ('CCCSc1nc(O)c(C2OC(=O)c3c2ccc(OC)c3OC)c(=O)n1C (stereo unspecified)', -1),
  ('CC(C)N1CCc2c(sc(N)c2C#N)C1', -1),
  ('COc1cccc(/C=C2/CN(C)CC3=C2OC(N)=C(C#N)C3c2cccc(OC)c2)c1 (stereo unspecified)', 1);

Please examine the following record next.
Q: What classification did COCc1[nH]nc2c1C(c1cccc(OC)c1)C(C#N)=C(N)O2 (stereo unspecified) end up with in this test?
Ans: -1

* * *

- assay overview: A549 NSCLC cell proliferation inhibitors – ATP luminescence, human non-small cell lung line, primary screen (AID 371)
- measurement conditions: at 10 µM, stronger effect = higher value
The campaign covered roughly 3,300 compounds. About 280 (8.5%) were called active. This excerpt belongs to a sample that is enriched for actives.
recorded endpoint: growth inhibition (%)
Quick note: give the figure in %, leave out the unit.

The cases that follow already have their growth inhibition on record.
INSERT INTO results (compound, recorded_endpoint, numeric_readout) VALUES
  ('Clc1ccc(-c2nnc3sc(Cc4cccs4)nn23)c(Cl)c1', 'growth inhibition', 52.8),
  ('Cc1coc2c(O)cc3c(c12)OC1(N2CCCCC2)C(=O)NCCCC31 (configuration not stated)', 'growth inhibition', 91.4);

Q: Query (compound): Cc1cccc(N2C(=O)CC(N3CCN(Cc4ccc(Cl)cc4)CC3)C2=O)c1 (configuration not stated) ; field requested: growth inhibition
Ans: -1.79

Q: Please do the same for CCCCC1CC1C(=O)Nc1ccc(OC)c(OC)c1 (configuration not stated) as well.
Ans: 11

Q: Please do the same for `Cc1nn(C)cc1C1C2=C(CC(C)(C)CC2=O)OC2=C1C(=O)CC(C)(C)C2` as well.
Ans: 1.38

Q: Please do the same for `C=CCNc1nc(-c2cccc(OC)c2O)nc2ccccc12` as well.
Ans: 24.3

Q: Please do the same for COc1cccc(OC)c1OCC(C)CNCC1CCCO1 (configuration not stated) as well.
Ans: 3.8

* * *

- assay overview: A549 NSCLC cell proliferation inhibitors – ATP luminescence, human non-small cell lung line, primary screen (AID 371)
- measurement conditions: at 10 µM, stronger effect = higher value
Among all 3,300 compounds or so, about 280 (8.5%) were called active. Only a selection was taken, and actives are over-represented in it overall.
recorded endpoint: growth inhibition (%)
Quick note: give the figure in %, leave out the unit.

The cases that follow already have their growth inhibition on record.
INSERT INTO measurements (molecule, numeric_readout) VALUES
  ('COc1cc(-c2nn3c(-c4ccco4)nnc3s2)cc(OC)c1OC', 0.05),
  ('CCCCCCn1c(C(C)O)nc2ccccc21 (centres undefined)', 15.7),
  ('CC(C)(C#N)C(C)(C)c1nn[nH]n1', -3.48),
  ('CCOC(=O)COn1c(=O)c(-c2ccc(OC)c(OC)c2)[n+]([O-])c2ccccc21', 4.28),
  ('CC(C)OC(=O)c1c2nc3ccccc3nc2n2c1[nH]c(=O)c1ccccc12', 60.3);

Q: Query (molecule): `CCO/C(C)=N/n1c2nc3ccccc3nc2c2c(=O)n(CC(C)C)c(C)nc21` ; field requested: growth inhibition
Ans: 3.19

Q: Please do the same for `Cc1cc2c(C)nc(Cc3ccccc3)nc2o1` as well.
Ans: 1.92

Q: Please do the same for `O=C(NCc1cccnc1)/C(=N\O)c1ccccc1` as well.
Ans: 0.76

Q: Please do the same for `N#Cc1ccc(-c2ccco2)nc1SCC(=O)c1ccc(Cl)cc1` as well.
Ans: 36.8

Q: Please do the same for `CCOC(=O)c1cnn2c1[nH]c(=O)c1ccccc12` as well.
Ans: 7.89

Q: Please do the same for N#CC1=C(SCc2ccccc2)NC2=C(C(=O)CCC2)C1c1ccc2c(c1)OCO2 (centres undefined) as well.
Ans: 35.2

Q: Please do the same for `Oc1ccccc1CNn1cnnc1` as well.
Ans: 7.07

Q: Please do the same for `Cc1cc(=O)oc(C)c1C(=O)NCC(C)C` as well.
Ans: -13.9

Q: Please do the same for N#CC1=C(SCC(=O)c2ccc(Br)cc2)NC2=C(C(=O)CCC2)C1c1ccco1 (centres undefined) as well.
Ans: 77.8

Q: Please do the same for `Nc1nnnn1/N=C/c1ccccn1` as well.
Ans: 3.3

* * *

- assay overview: A549 NSCLC cell proliferation inhibitors – ATP luminescence, human non-small cell lung line, primary screen (AID 371);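 note: compound exposure lasted 72 h before the ATP read; 0% = untreated cell signal and 100% = no luminescence left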
- measurement conditions: at 10 µM
The whole screen tested about 3,300 compounds, of which about 280 (8.5%) were called active.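 How the source made its calls: active means mean growth inhibition over the two runs of 50% or more; inactive means mean growth inhibition under 50%.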 This is one part of a sample in which actives are shown more often than they occur.
Your reply should match one of these outcome classes. Yes (active), No (inactive)

INSERT INTO results (compound, class_label) VALUES
  ('O=S1CCCSC1c1cccnc1 (stereo not drawn)', 'No'),
  ('COC(=O)C(NC(C)=O)(Nc1ccc(Br)cc1)C(=O)OC', 'No'),
  ('CC(=O)Nc1n[nH]c(S(=O)(=O)Cc2ccc(Cl)cc2Cl)n1', 'No'),
  ('O=C(O)CC(NCc1ccco1)C(=O)OCC1CCCO1 (stereo not drawn)', 'No'),
  ('N#CC1=C(N)N2C(=C(C#N)C1c1ccccc1)Sc1ccccc12 (stereo not drawn)', 'No'),
  ('CCOC(=O)CSc1nc(C)c(C(C)=O)cc1C#N', 'No'),
  ('C=CCOC(=O)C1=C(C)NC(SCC(=O)N(CC)CC)=C(C#N)C1c1ccccc1 (stereo not drawn)', 'Yes'),
  ('C=CCOC(=O)C1=C(C)NC(SCC(=O)N(CC)CC)=C(C#N)C1c1ccco1 (stereo not drawn)', 'No');

Q: What classification did `c1ccc(N2CCN(c3nc(-c4ccccn4)nc4ccccc34)CC2)cc1` end up with in this test?
Ans: Yes

* * *

- assay overview: A549 NSCLC cell proliferation inhibitors – ATP luminescence, human non-small cell lung line, primary screen (AID 371);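 note: compound exposure lasted 72 h before the ATP read; 0% = untreated cell signal and 100% = no luminescence left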
- measurement conditions: at 10 µM
Among all 3,300 compounds or so, about 280 (8.5%) were called active.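 How the source made its calls: active means mean growth inhibition over the two runs of 50% or more; inactive means mean growth inhibition under 50%.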 For the sample, actives were picked, then their nearest neighbours and some compounds at random.
Your reply should match one of these outcome classes. YES = active, NO = inactive

INSERT INTO measurements (molecule, class_label) VALUES
  ('Clc1ccc2c(c1)C(N1CCNCC1)=Nc1ccccc1O2', 'NO');

Q: What classification did `N#Cc1nc(-c2cccs2)oc1NCc1ccccc1` end up with in this test?
Ans: NO

Q: Please do the same for CC1(C)SC2[C@H](NC(=O)C(NC(=O)N3CCNC3=O)c3ccccc3)C(=O)N2C1C(=O)O (some centres not stated) as well.
Ans: NO

Q: Please do the same for `Cc1ccc2[nH]c3c(NCCN4CCOCC4)ncnc3c2c1` as well.
Ans: NO

* * *

- assay overview: A549 NSCLC cell proliferation inhibitors – ATP luminescence, human non-small cell lung line, primary screen (AID 371);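 note: compound exposure lasted 72 h before the ATP read; 0% = untreated cell signal and 100% = no luminescence left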
- measurement conditions: at 10 µM, stronger effect = higher value
Screen size: about 3,300 compounds; about 280 (8.5%) were called active. The full list was thinned out, with actives kept by preference.
We begin with a simple list: items and their reported growth inhibition.
Quick note: give the figure in %, leave out the unit.

The cases that follow already have their growth inhibition on record.
INSERT INTO assay_data (compound, numeric_readout) VALUES
  ('Cc1cc(N2C(=O)C(=O)/C(=C(/O)c3ccc(F)cc3)C2c2ccc(F)cc2)no1 (centres undefined)', 9.16),
  ('CC(=O)O[C@]1(C(C)=O)CC[C@H]2[C@@H]3C=C(C)C4=CC(=O)CC[C@]4(C)[C@H]3CC[C@@]21C', 34.5),
  ('CC(=O)O[C@]1(C(C)=O)CC[C@H]2[C@@H]3C=C(Cl)C4=CC(=O)CC[C@]4(C)[C@H]3CC[C@@]21C', 52.6),
  ('CCCCOC(=O)C(C)c1c(C)[nH]c(=S)[nH]c1=O (centres undefined)', 5.11),
  ('CC(NC(=O)Nc1ncccn1)(C(F)(F)F)C(F)(F)F', 0.51),
  ('Cn1c(OCc2cccnc2)nc2c1c(=O)n(Cc1ccc(Cl)cc1)c(=O)n2C', 35.5);

Q: Query (compound): `CCCc1cc(NCCN2CCOCC2)n2c(nc3ccccc32)c1C#N` ; field requested: growth inhibition
Ans: 6.32

Q: Please do the same for `CCCCCCCC(=O)OCC(=O)[C@@]1(O)CC[C@H]2[C@@H]3CCC4=CC(=O)CC[C@]4(C)[C@H]3[C@@H](O)C[C@@]21C` as well.
Ans: 26.8

Q: Please do the same for CCOC(=O)C1=C(C)OC(N)=C(C#N)C1c1cc2ccccc2nc1N1CCCCC1 (centres undefined) as well.
Ans: 22.5
